pIC50: −log10 of the molar value.
Here we list compounds with their recorded pIC50 when tested on N-formyl peptide receptor 2 (Homo sapiens, UniProt P25090).
Sequence (P25090 whole entry): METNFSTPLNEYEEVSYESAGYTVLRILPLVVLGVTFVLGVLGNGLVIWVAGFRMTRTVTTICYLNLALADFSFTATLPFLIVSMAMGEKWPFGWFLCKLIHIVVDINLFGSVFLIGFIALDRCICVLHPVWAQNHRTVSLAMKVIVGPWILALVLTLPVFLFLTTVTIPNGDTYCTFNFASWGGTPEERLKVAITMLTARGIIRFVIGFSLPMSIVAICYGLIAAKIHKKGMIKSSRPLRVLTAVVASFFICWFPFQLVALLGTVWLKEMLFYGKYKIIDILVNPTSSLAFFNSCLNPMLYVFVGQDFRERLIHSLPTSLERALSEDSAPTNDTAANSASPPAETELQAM
readout: pIC50

O=C1NC(c2ccc(Br)cc2)C(C(=O)c2ccc(Cl)cc2)C1=O (stereo not given) :: < 4.18
Cc1nc2c(-c3ccc(Cl)cc3)c(C(F)(F)F)[nH]n2c(=O)c1Cc1ccccc1 :: < 4.18
COc1cc(C2C(C(C)=O)C(=O)C(=O)N2c2ccc(Br)cc2)ccc1O (stereo not given) :: < 4.18
COc1ccc(C2C(C(=O)c3ccco3)C(=O)C(=O)N2CCCN2CCOCC2)cc1OC (stereo not given) :: < 4.18
Cc1ccc(N2C(=O)C(=O)C(C(=O)c3ccccc3)C2c2cccc(F)c2)cc1Br (stereo not given) :: < 4.18

Origin of values: BindingDB's records for doi:10.7270/Q22V2DH9
